target: RET (Homo sapiens, UniProt P07949); test: RET cell free kinase assay (Table 3A); assay type: biochemical
Sequence (P07949 29-1114): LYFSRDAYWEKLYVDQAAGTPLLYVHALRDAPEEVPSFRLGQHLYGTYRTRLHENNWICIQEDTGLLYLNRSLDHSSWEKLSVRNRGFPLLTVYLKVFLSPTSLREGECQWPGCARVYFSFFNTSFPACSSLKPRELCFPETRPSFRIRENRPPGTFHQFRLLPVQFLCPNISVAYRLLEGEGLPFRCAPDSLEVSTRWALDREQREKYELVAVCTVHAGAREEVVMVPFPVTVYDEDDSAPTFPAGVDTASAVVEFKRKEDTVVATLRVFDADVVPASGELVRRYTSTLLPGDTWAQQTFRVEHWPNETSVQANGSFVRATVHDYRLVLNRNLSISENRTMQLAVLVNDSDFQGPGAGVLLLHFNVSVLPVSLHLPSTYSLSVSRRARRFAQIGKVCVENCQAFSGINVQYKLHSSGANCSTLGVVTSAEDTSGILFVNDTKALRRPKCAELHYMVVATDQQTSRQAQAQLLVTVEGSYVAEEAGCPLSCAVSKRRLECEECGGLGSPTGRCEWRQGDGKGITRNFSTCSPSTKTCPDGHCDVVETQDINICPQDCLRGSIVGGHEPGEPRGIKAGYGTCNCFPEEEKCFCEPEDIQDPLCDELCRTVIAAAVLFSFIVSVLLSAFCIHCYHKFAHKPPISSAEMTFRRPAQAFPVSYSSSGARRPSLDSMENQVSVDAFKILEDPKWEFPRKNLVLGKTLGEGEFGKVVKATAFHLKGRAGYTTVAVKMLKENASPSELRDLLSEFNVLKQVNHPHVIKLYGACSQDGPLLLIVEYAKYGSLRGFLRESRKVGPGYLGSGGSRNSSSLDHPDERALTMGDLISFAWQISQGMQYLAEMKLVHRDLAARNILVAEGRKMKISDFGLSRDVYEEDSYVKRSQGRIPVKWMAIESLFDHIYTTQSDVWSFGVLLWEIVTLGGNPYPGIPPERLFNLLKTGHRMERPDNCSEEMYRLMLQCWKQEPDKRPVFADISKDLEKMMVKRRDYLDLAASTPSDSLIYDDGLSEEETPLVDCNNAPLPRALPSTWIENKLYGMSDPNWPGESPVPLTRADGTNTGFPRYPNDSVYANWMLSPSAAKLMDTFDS
pIC50: −log10 of the molar value.
readout.kind: pIC50

[[record]]
sample_smiles = "C[C@@H](Cc1c(F)c(F)cc(F)c1F)Nc1cc[nH]c(=O)c1-c1nc2cc3c(cc2[nH]1)CN(CCN(C)C)C3=O"
assay_system = "RET (Homo sapiens, UniProt P07949)"
numeric_result = 8.40

[[record]]
sample_smiles = "C[C@@H](Cc1c(F)c(F)cc(F)c1F)Nc1cc[nH]c(=O)c1-c1nc2cc3c(cc2[nH]1)C(=O)N(C1CCN(C)CC1)C3"
assay_system = "RET (Homo sapiens, UniProt P07949)"
numeric_result = 8.22


---

compounds and their reported IC50
biological target: UniProt:Q9UM73; experiment: ALK kinase assay (Kinase-Glo / AlphaScreen, purified NPM-ALK); type: biochemical; parameters: fused to the complete intracytoplasmic portion of ALK containing the functional tyrosine kinase domain; 6xHis; made in house; host or cells: insect cells; the other entry of the earlier key: NPM1 (P06748, Nucleophosmin); conditions: Table 1; read-out: ALK IC50;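 also: recombinant baculovirus-expressed ALK kinase domain, activity read either as leftover ATP by Kinase-Glo luminescence or as poly(Glu-Tyr) phosphorylation by anti-phosphotyrosine AlphaScreen proximity signal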
Sequence (Q9UM73 with tags, fused parts or gaps): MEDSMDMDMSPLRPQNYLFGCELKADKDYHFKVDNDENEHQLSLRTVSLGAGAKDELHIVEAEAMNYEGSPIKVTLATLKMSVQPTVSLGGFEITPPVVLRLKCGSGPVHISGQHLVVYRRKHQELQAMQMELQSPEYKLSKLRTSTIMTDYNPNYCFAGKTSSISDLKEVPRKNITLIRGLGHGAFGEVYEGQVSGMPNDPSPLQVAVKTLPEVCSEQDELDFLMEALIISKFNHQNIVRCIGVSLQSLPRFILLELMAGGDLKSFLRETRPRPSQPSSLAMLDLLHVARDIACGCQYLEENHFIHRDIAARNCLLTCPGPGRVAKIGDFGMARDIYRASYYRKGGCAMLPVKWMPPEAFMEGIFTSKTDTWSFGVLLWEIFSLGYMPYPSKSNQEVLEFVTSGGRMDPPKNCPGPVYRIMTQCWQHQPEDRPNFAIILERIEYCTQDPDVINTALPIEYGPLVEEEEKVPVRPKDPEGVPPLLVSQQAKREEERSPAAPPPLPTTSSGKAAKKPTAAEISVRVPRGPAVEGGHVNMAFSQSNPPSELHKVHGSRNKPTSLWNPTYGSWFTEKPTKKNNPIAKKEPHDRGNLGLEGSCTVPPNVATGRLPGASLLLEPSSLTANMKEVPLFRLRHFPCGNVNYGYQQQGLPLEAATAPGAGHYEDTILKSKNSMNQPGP
readout.kind: IC50

[[record]]
compound = "CCc1ccccc1C[C@H](C)Nc1cc[nH]c(=O)c1-c1nc2cc3c(cc2[nH]1)CN(CCN1CCCC1)C3=O"
result = "10 to 100 nM"

[[record]]
compound = "Cc1c(F)cccc1C[C@H](C)Nc1cc[nH]c(=O)c1-c1nc2cc3c(cc2[nH]1)C(=O)N(CCN1CCCC1)C3"
result = "10 to 100 nM"

[[record]]
compound = "CCS(=O)(=O)CCN1CCC(N2Cc3cc4nc(-c5c(N[C@@H](C)Cc6cccs6)cc[nH]c5=O)[nH]c4cc3C2=O)CC1"
result = "100 to 250 nM"

[[record]]
compound = "Cc1csc(CC(C)Nc2cc[nH]c(=O)c2-c2nc3cc4c(cc3[nH]2)C(=O)N(CCCN2CCCC2)C4)c1 (stereo not shown)"
result = "250 to 1000 nM"


---

system: Karpas299; test: Cell proliferation inhibition, ALCL line Karpas299; assay type: cell-based; settings: Homo sapiens, KARPAS-299; Table 2, cell line; read-out: IC50 ALCL (ALK) Karpas299
pIC50: −log10 of the molar value.
readout.kind: pIC50

[[record]]
compound = "CNCCN1Cc2cc3[nH]c(-c4c(N[C@@H](C)Cc5cc(F)ccc5C)cc[nH]c4=O)nc3cc2C1=O [drawing 355]"
result = "7.00 to 8.00"

[[record]]
compound = "C[C@@H](Cc1cc(F)cc(F)c1F)Nc1cc[nH]c(=O)c1-c1nc2cc3c(cc2[nH]1)CN(CCN(C)C)C3=O [drawing 356]"
result = "7.00 to 8.00"

[[record]]
compound = "Cc1ccc(F)cc1C[C@H](C)Nc1cc[nH]c(=O)c1-c1nc2c(C)c3c(cc2[nH]1)CN(CCN1CCCC1)C3=O [drawing 351]"
result = "> 8.00"

[[record]]
compound = "C[C@@H]1CCCN1CCN1Cc2cc3[nH]c(-c4c(N[C@@H](C)Cc5cc(F)cc(F)c5F)cc[nH]c4=O)nc3cc2C1=O [drawing 353]"
result = "> 8.00"

[[record]]
compound = "C[C@@H](Cc1cc(F)ccc1Br)Nc1cc[nH]c(=O)c1-c1nc2cc3c(cc2[nH]1)CN(CCN1CCCC1)C3=O [drawing 359]"
result = "7.00 to 8.00"

[[record]]
compound = "C[C@@H](Cc1cc(F)cc(F)c1F)Nc1cc[nH]c(=O)c1-c1nc2cc3c(cc2[nH]1)CN(CCN1CCCC1)C3=O [drawing 358]"
result = "7.00 to 8.00"

[[record]]
compound = "Cc1ccc(F)cc1C[C@H](C)Nc1cc[nH]c(=O)c1-c1nc2cc3c(cc2[nH]1)C(=O)N(CCN1CCCC1)C3 [drawing 350]"
result = "> 8.00"

